Assay: Cell Viability - LYMP2-021 (AID 974);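 note: compound exposure lasts 24 hours at 37 °C; nearly all actives have a fitted effect of over 55% in size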
Details: LYMP2-021 lymphoblastoid cells viability; series mostly up to 92.2 µM
Results filed as inconclusive are left out. Active and inactive are the calls of the source. Calls come from the whole dose curve; as a rule, active = well fitted cell-killing curve with a large enough effect; inconclusive = small, poorly fitted or top-dose-only effect; inactive = flat fitted curve, though single readings scatter.
Returns: one label drawn from yes = active, no = inactive

Use the examples below as a reference point.
compound	group
O=C(O)CCC(=O)C(=O)O	no
IC(I)I	no
CCOc1ccc2c(c1)C(C)=CC(C)(C)N2	no
O=S(=O)(O)O	no
CC(O)CO (stereo not given)	no

Which outcome did this test record for the compound "CCCCCCCC(=O)O" ?
no

And what about the compound "CCOC(C)=O" ?
no

And what about the compound "O=CCCCC=O" ?
yes

And what about the compound "CCCCC/C=C\C/C=C\CCCCCCCC(=O)O" ?
no

And what about the compound "CC(C)=O" ?
no

---

Tested on: CP262
Experiment: qHTS profiling for inhibitors of Plasmodium falciparum proliferation (AID 504749); note: nearly all actives have a fitted effect of over 60% in size; note: potency is the fitted concentration of half-maximal effect
Conditions: P. falciparum in erythrocytes, SYBR Green DNA, 72 h; series mostly up to 28.7 µM
Records with an inconclusive call do not appear. Activity calls are given as the source filed them. The call rests on the fitted dose curve; in most records, active means well fitted inhibition curve with a large enough effect; inconclusive means small, poorly fitted or top-dose-only effect; inactive means flat fitted curve, though single readings scatter.
value.kind: Potency

Consider the worked cases shown below.
compound	Potency
CC(C)=O	inactive
CO[C@H]1C[C@@H]2CC[C@@H](C)[C@@](O)(O2)C(=O)C(=O)N2CCCC[C@H]2C(=O)O[C@H]([C@H](C)C[C@@H]2CC[C@@H](OCCO)[C@H](OC)C2)CC(=O)[C@H](C)/C=C(\C)[C@@H](O)[C@@H](OC)C(=O)[C@H](C)C[C@H](C)/C=C/C=C/C=C/1C	3.01 µM (active)
CCCCCCCCCCCCCCCC(=O)OCC(COC(=O)CCCCCCCCCCCCCCC)OC(=O)CCCCCCCCCCCCCCC	inactive
CC(C(=O)O)c1ccc(N2Cc3ccccc3C2=O)cc1 (stereo unspecified)	inactive
CCN(CC)Cc1cc(Nc2ccnc3cc(Cl)ccc23)ccc1O	0.0721 µM (active)
CCOc1ccc2c(c1)C(C)=CC(C)(C)N2	inactive

Let's switch to this compound now.
# get_value(readout='Potency', item= "CC(=O)Oc1cc(C)c(OC(C)=O)c2ccccc12" )
13.5 µM (active)

---

System: NIH3T3
Assay: qHTS assay to identify novel small-molecules to repurpose for Merkel cell carcinoma treatment (AID 1296009); note: nearly all actives have a fitted effect of over 60% in size
Conditions: MCC and control cell lines, CellTiter-Glo viability, 72 h; at 44.8 µM (top of the series) unless noted
Records with an inconclusive call do not appear. Activity calls are given as the source filed them. Calls follow the shape of the dose curve; as a rule, active = well fitted inhibition curve with a large enough effect; inconclusive = small, poorly fitted or top-dose-only effect; inactive = flat fitted curve, though single readings scatter.
value.kind: outcome

Consider the worked cases shown below.
compound	test.value
CC(C)C1=CC2=CCC3[C@](C)(CCC[C@@]3(C)C(=O)O)C2CC1=O (stereo partly specified)	inactive
Cc1cc(C)c(S(=O)(=O)N(Cc2ccc(-c3cccc(S(C)(=O)=O)c3)cc2)Cc2ccc(C(F)(F)F)o2)c(C)c1	inactive
CC(=O)O[C@@H]1[C@@H](OC(=O)/C=C/c2ccccc2)[C@H](C)O[C@@H](O[C@H]2[C@@H]3C=CO[C@@H](O[C@@H]4O[C@H](CO)[C@@H](O)[C@H](O)[C@H]4O)[C@@H]3[C@@]3(CO)O[C@@H]23)[C@@H]1OC(C)=O	inactive [at 17.4 µM]
COC(=O)[C@H](CC1C=NC=N1)NCC12CC3CC(CC(C3)C1)C2 (stereo partly specified)	inactive
OC[C@H]1O[C@@H](Oc2ccc(O)c3cccc(O)c23)[C@H](O)[C@@H](O)[C@@H]1O	inactive

# get_value(readout='outcome', item= "CCOC(=O)c1ccc(N(C)c2csc(-c3ccccc3)n2)cc1" )
inactive

And what about the compound "O=C(O[C@H]1[C@@H]2C[C@@H]3OC[C@@](O)([C@H]2[C@H](O[C@@H]2O[C@H](CO)[C@@H](O)[C@H](O)[C@H]2O)O3)[C@@H]1O)c1ccccc1" ?
inactive [at 17.4 µM]

And what about the compound CCC(NC(=O)CC(NC(=O)C(CO)NC(=O)C(CC)NC(=O)c1ccc[nH]1)c1ccccc1)C(=O)O (stereo unspecified) ?
inactive [at 17.4 µM]

And what about the compound "COc1cc(C(C)=O)ccc1O[C@@H]1O[C@H](CO[C@@H]2O[C@@H](C)[C@H](O)[C@@H](O)[C@H]2O)[C@@H](O)[C@H](O)[C@H]1O" ?
inactive [at 17.4 µM]

And what about the compound "CC(=O)OCC1=C[C@H](O)[C@@H]2C(C(=O)O)=CO[C@@H](O[C@@H]3O[C@H](CO)[C@@H](O)[C@H](O)[C@H]3O)[C@H]12" ?
inactive [at 17.4 µM]

And what about the compound "C[C@H]1CN(C[C@H](Cc2ccccc2)C(=O)NCC(=O)O)CC[C@@]1(C)c1cccc(O)c1" ?
inactive

And what about the compound COc1cc2c(cc1O)C1(Cc3ccc4c(c3C1=O)OCO4)N(C)CC2 (stereo unspecified) ?
inactive

And what about the compound Cc1ncc([N+](=O)[O-])n1CC(O)CN1CCOCC1 (stereo unspecified) ?
inactive

And what about the compound CC1CCC(=O)CC(O)C(O)CC(=O)O1 (stereo unspecified) ?
inactive

And what about the compound "Cc1c(N2C(=O)c3ccc(C(=O)O)cc3C2=O)c(=O)n(-c2ccccc2)n1C" ?
inactive
